Cited source: PubChem BioAssay AID1159580

protocol: chemical genetic growth profiling, strain panel (AID 1159580);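 further: tested at 20 µM; growth read once vehicle control cultures reached saturation at 30 °C; 1 = growth at the plate median or of vehicle wells; lower values mean less growth of the strain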
measurementSetup: S. cerevisiae deletion strains, growth OD, locus YER155C, strain BEM2 (second series), stronger effect = lower value
In all, about 5,500 compounds went through this assay and about 2,000 (36%) were called active. Not shown: some 18% with an inconclusive outcome. This is one part of the list.
resultType: normalized growth

{"compound": "CC(=O)NCc1c(I)c(NC(C)=O)c(I)c(C(=O)O)c1I", "resultType": "normalized growth", "observedMeasurement": 1.01}
{"compound": "O=c1oc2cc(O)ccc2s1", "resultType": "normalized growth", "observedMeasurement": 0.988}
{"compound": "COc1ccc2[nH]cc(CCN)c2c1", "resultType": "normalized growth", "observedMeasurement": 0.978}
{"compound": "OC(CCN1CCCCC1)(c1ccccc1)C1CC2C=CC1C2 (stereo not drawn)", "resultType": "normalized growth", "observedMeasurement": 1.01}
{"compound": "Cc1cc(-n2c(=O)[nH]c(=O)n(C)c2=O)ccc1Oc1ccc(SC(F)(F)F)cc1", "resultType": "normalized growth", "observedMeasurement": 0.968}
{"compound": "C[C@]12CCC(=O)C=C1CCC1C2[C@@H](O)C[C@@]2(C)C1CC[C@]2(O)C(=O)CO (stereo partly drawn)", "resultType": "normalized growth", "observedMeasurement": 1.01}
{"compound": "COc1ccc2c3c([nH]c2c1)C(C)=NCC3", "resultType": "normalized growth", "observedMeasurement": 0.98}
{"compound": "C/C=C(/C)C(=O)OC1CCC2(C)C3CCC4C5(O)CC(O)C6(O)C(CN7CC(C)CCC7C6(C)O)C5(O)CC42OC13O (stereo not drawn)", "resultType": "normalized growth", "observedMeasurement": 0.969}
{"compound": "C#C[C@]1(O)CCC2C3CCC4=C(CCC(=O)C4)C3CC[C@@]21C (stereo partly drawn)", "resultType": "normalized growth", "observedMeasurement": 0.974}
{"compound": "CO[C@@]12[C@@H]3NC3CN1C1=C(C(=O)C(N)=C(C)C1=O)[C@@H]2COC(N)=O (stereo partly drawn)", "resultType": "normalized growth", "observedMeasurement": 0.962}
{"compound": "CC(=O)NC(C(=O)O)C(C)(C)SN=O (stereo not drawn)", "resultType": "normalized growth", "observedMeasurement": 0.989}
{"compound": "CCOC(=O)OC(C)OC(=O)C1N2C(=O)C(NC(=O)[C@H](N)c3ccccc3)C2SC1(C)C (stereo partly drawn)", "resultType": "normalized growth", "observedMeasurement": 0.995}
{"compound": "Nc1c2c(nc3ccccc13)CCCC2", "resultType": "normalized growth", "observedMeasurement": 0.902}
{"compound": "Nc1c2ccccc2nc2ccccc12 (tested in a mixture with another compound)", "resultType": "normalized growth", "observedMeasurement": 0.774}
{"compound": "OC(CCN1CCCCC1)(c1ccccc1)C1CCCCC1 (stereo not drawn)", "resultType": "normalized growth", "observedMeasurement": 0.929}
{"compound": "COc1ccc2c(c1)c(CC(=O)O)c(C)n2C(=O)c1ccc(Cl)cc1", "resultType": "normalized growth", "observedMeasurement": 0.874}
{"compound": "COc1cc(N)c(Cl)cc1C(=O)NC1CCN(Cc2ccccc2)CC1", "resultType": "normalized growth", "observedMeasurement": 0.988}
{"compound": "O=C1c2c(O)cccc2Cc2cccc(O)c21", "resultType": "normalized growth", "observedMeasurement": 0.957}
{"compound": "OC(CCN1CCCC1)(c1ccccc1)C1CCCCC1 (stereo not drawn)", "resultType": "normalized growth", "observedMeasurement": 0.946}
{"compound": "COC1=C[C@@H]2[C@@H]3Cc4ccc(OC)c(O)c4[C@]2(CCN3C)CC1=O", "resultType": "normalized growth", "observedMeasurement": 1.01}
{"compound": "CCOc1ccc2nc3cc(N)ccc3c(N)c2c1", "resultType": "normalized growth", "observedMeasurement": 0.856}
{"compound": "NNC(=O)c1ccncc1", "resultType": "normalized growth", "observedMeasurement": 1.03}
{"compound": "Cc1cn([C@H]2C[C@H](N=[N+]=[N-])[C@@H](CO)O2)c(=O)[nH]c1=O", "resultType": "normalized growth", "observedMeasurement": 1}
